target: GlcNAc(b1-3)[GlcNAc(b1-4)][GlcNAc(b1-6)]GlcNAc; assay: glycan array binding signal (z-score within array); higher = stronger binding; details: glycan notation: IUPAC condensed, linker removed
This is one part of a sample in which the strongest signals are shown more often than they occur.
Property Name: glycan array binding signal (z-score)
Give the figure only, with no unit attached.

Observe how each entry below is paired with its result.
*Q* What value of glycan array binding signal (z-score) has been reported for the following binder? SSL (Salmo salar) (protein) TGAKGAEEGVVPAETRNQCPTGWFQFGSRCFMFVETARSWPLAERHCVSLGANLASVHSSADDQFLQAIAGCKTGAFSTTWIGGFDAVQDRLWFWSDGSEFDYQNWAKGEPNNSGGREPCIVINWGDEYRWNDIKCGNSFPSVCSKRICEIQKN
*A* 11.7

*Q* Try this binder too: Gal 8 (Homo sapiens), O00214_1 (protein) MMLSLNNLQNIIYNPVIPFVGTIPDQLDPGTLIVIRGHVPSDADRFQVDLQNGSSMKPRADVAFHFNPRFKRAGCIVCNTLINEKWGREEITYDTPFKREKSFEIVIMVLKDKFQVAVNGKHTLLYGHRIGPEKIDTLGIYGKVNIHSIGFSFSSDLQSTQASSLELTEISRENVPKSGTPQLRLPFAARLNTPMGPGRTVVVKGEVNANAKSFNVDLLAGKSKDIALHLNPRLNIKAFVRNSFLQESWGEEERNITSFPFSPGMYFEMIIYCDVREFKVAVNGVHSLEYKHRFKELSSIDTLEINGDIHLLEVRSW
*A* -0.227

*Q* Queued: CLECb-Precomplexed (Mus musculus), P43025 (protein) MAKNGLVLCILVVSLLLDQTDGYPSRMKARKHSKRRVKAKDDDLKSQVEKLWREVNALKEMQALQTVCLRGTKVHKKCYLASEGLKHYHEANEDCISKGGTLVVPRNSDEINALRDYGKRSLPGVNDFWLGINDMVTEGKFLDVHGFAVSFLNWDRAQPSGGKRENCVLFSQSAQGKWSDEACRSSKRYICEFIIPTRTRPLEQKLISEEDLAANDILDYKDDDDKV
*A* -0.456

***
*Q* Which value of glycan array binding signal (z-score) has been reported for HMGB1 (Homo sapiens), P09429 (protein) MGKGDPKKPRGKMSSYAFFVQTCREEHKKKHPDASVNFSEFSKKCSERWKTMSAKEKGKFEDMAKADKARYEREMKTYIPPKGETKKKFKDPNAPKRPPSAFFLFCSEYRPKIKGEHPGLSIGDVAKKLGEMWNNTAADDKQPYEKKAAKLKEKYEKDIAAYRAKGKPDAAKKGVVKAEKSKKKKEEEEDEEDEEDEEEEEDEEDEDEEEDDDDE in the records?
*A* -0.309

*Q* Similarly, CREG (Mus musculus), O88668 (protein) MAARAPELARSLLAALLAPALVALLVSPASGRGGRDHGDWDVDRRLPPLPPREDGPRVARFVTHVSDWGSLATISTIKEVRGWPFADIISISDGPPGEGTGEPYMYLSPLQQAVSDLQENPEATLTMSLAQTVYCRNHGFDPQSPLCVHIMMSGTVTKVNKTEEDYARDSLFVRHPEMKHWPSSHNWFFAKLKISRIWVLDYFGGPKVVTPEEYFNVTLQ ?
*A* 2.23

*Q* And the next one, LecRKVI.2 (protein) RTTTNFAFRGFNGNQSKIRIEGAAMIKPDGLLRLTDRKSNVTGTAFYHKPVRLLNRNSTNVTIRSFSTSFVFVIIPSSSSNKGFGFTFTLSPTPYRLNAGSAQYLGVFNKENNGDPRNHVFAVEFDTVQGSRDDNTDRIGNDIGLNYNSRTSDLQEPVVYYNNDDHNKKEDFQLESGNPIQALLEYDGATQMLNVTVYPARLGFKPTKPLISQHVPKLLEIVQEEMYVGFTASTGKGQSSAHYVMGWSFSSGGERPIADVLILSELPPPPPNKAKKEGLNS ?
*A* -0.429
